Recorded growth, one value per entry.
System: SK-MEL-5 melanoma
Assay: NCI-60 one-dose screen, 48 h (100 = growth as untreated, 0 = no growth, -100 = all killed)
Settings: 10 µM unless noted
Procedure: Growth inhibition of the SK-MEL-5 human tumor cell line is measured as a screen for anti-cancer activity. Cells are grown in 96 well plates and exposed to the test compound for 48 hours. Compounds are tested at a single concentration, which is 10^-5 M for most compounds. The reported endpoint is percent growth (GI% or GIPRCNT), where numbers from 0 - 100% represent growth inhibition, and numbers from -100% - 0 represent cell death. For example, a value of 40 represents 60% growth inhibition. […]
This is part of a sample that, as a whole, favours compounds with a hit. Of some 83,000 tested, about 20% had one in any assay.
Report the figure in % without appending any unit label.

Some solved cases for reference:
[[record]]
molecule = "CC(Sc1nc2sc3c(c2c(=O)n1-c1ccc(Cl)cc1)CCCC3)C(=O)Nc1nc(-c2ccc(Br)cc2)cs1 (configuration not stated)"
metric_name = "growth"
measured_number = 97.4

[[record]]
molecule = "COc1ccc(C(=O)CC#N)cc1"
metric_name = "growth"
measured_number = 97.9

[[record]]
molecule = "C=C(C)[C@@H]1CC[C@]2(C(=O)N3CCN(C)CC3)CC[C@]3(C)[C@H](CC[C@@H]4[C@@]5(C)C/C(=C/c6ccncc6)C(=O)C(C)(C)[C@@H]5CC[C@]43C)[C@@H]12"
metric_name = "growth"
measured_number = 59.8


// Input: CC(=O)O[C@@H]1C2CCC3C(CC[C@@]4(C)C3CC[C@@H]4C(C)N(C)C)[C@@]2(C)CC[C@@H]1NC(=O)C=C(C)C (some centres not stated) . Output its growth only.
-93.1

// Input: N#Cc1c(NC(=O)NCc2ccccc2)sc2c1CCCC2 . Output its growth only.
13.3

These measurements were taken from PubChem BioAssay (NCI).
